Molecular target: Thioredoxin reductase 1, cytoplasmic (Rattus norvegicus)
Experiment: qHTS Assay for Inhibitors of Mammalian Selenoprotein Thioredoxin Reductase 1 (TrxR1) (AID 488773); further: nearly all actives have a fitted effect of over 40% in size; further: potency means the concentration at half of the fitted maximal effect
Conditions: purified TrxR1 enzyme activity; inhibition; series mostly up to 57.1 µM
Source text: The selenoprotein thioredoxin reductase (TrxR; EC 1.8.1.9) is a FAD containing homodimeric pyridine nucleotide-disulfide oxidoreductase with many cellular roles. Together with NADPH and its prime substrate thioredoxin (Trx), the enzyme forms the core of the Trx system. […] This BioAssay is a validation of an NADPH fluorescence-based, dual-purpose qHTS rTrxR1 assay designed to find potential inhibitors and substrates of rTrxR1. […]
Records with an inconclusive call do not appear. Active and inactive are the calls of the source. The call rests on the fitted dose curve; in most records, active means well fitted inhibition curve with a large enough effect; inconclusive means small, poorly fitted or top-dose-only effect; inactive means no such curve, though single readings can be large or run the other way.
assayReadout: Potency

Worked examples follow.
COc1ccc2cc([C@H](C)C(=O)O)ccc2c1 ... inactive
Cc1cccc(C#Cc2ccccc2)n1 ... inactive
O=C1c2c(O)cc(O)cc2OC(c2ccc(O)c(O)c2)C1O (stereo not given) ... 8.44 µM (active)
CC1(C)NC(=O)N(c2ccc([N+](=O)[O-])c(C(F)(F)F)c2)C1=O ... inactive

Now, please, on to the next compound.
Enquiry: What does the data say about its Potency? Entry: O=c1cc(N2CCOCC2)oc2c(-c3ccccc3)cccc12
Return: inactive

Entry source: PubChem BioAssay (NCATS)
